Biological target: thrombin (Homo sapiens, UniProt P00734)
Construct: purchased Sigma Chem. Co. T-7009
Experiment: Inhibition of thrombin
Type: biochemical
Conditions: Table III; 10 uM; read-out: Thrombin % I @ 10 uM
RESULT TYPE: inhibition at 10 µM (%)

Study these solved cases before continuing.
COMPOUND	UNIT ABBREV	NUMERIC RESULT
CN(Cc1ccccc1)C(=O)C[C@@H](NS(C)(=O)=O)C(=O)N[C@H](C=O)Cc1ccccc1 [Compound 78]	%	0
CCS(=O)(=O)N[C@H](COCc1ccccc1)C(=O)N[C@H](C=O)Cc1ccccc1 [Compound 50]	%	9
Cc1nn(C)c(Cl)c1S(=O)(=O)N[C@H](COCc1ccccc1)C(=O)N[C@H](C=O)Cc1ccccc1 [Compound 91]	%	0
CCS(=O)(=O)N[C@H](Cc1ccccc1)C(=O)N[C@H](C=O)Cc1ccccc1 [Compound 60]	%	0

[a] O=C[C@H](Cc1ccccc1)NC(=O)[C@@H](Cc1ccccc1)NS(=O)(=O)c1ccc2ccccc2c1 [Compound 72]
[b] CC(C)(C)OC(=O)N1CCCC[C@H](NC(=O)[C@@H](COCc2ccccc2)N(C(=O)OC(C)(C)C)S(C)(=O)=O)C1=O [Compound 127]
[c] Cc1ccc(S(=O)(=O)N[C@H](COCc2ccccc2)C(=O)N[C@H](C=O)Cc2ccccc2)cc1 [Compound 49]
Q: In this exercise, place the 3 compounds in ascending sequence of their recorded inhibition at 10 µM. Field: ranking. Enter the labels in the order requested.
Ans: b, c, a
